- subject_of_test: IKKε (Homo sapiens (Human))
- Sequence (Q14164 whole entry): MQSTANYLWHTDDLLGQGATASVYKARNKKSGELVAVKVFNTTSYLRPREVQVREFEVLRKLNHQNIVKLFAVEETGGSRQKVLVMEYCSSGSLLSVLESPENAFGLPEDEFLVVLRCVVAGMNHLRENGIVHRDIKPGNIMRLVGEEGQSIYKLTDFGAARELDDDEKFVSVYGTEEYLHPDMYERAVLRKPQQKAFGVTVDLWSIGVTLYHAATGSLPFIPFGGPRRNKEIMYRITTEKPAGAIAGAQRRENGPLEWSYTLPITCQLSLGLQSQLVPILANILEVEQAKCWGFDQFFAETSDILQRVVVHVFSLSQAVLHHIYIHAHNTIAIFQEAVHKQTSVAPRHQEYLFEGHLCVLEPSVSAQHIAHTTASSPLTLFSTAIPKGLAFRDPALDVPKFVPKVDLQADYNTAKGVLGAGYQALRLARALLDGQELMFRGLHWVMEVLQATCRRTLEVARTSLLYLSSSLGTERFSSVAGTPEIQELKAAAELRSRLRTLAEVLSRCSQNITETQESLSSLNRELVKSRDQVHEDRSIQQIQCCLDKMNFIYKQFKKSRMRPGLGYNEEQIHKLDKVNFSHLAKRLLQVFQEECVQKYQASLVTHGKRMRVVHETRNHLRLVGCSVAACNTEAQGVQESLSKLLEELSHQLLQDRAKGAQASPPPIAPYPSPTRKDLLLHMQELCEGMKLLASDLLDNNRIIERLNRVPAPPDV
- method_summary: IKKε TR-FRET enzymatic assay
- Format: biochemical
- measurement_context: TR-FRET, 2×Km ATP; geometric mean of minimum four determinations; read-out: IKKe IC50
pIC50: −log10 of the molar value.
measurement_label: pIC50

(I) CC(=O)Nc1ccc(Nc2ncnc(-c3ccc(O[C@H]4CCN(C(=O)[C@H](C)O)C[C@H]4F)c(C#N)c3)n2)cn1 [Example 540]
(II) C[C@H]1CN(c2ccc(Nc3ncnc(-c4ccc(O[C@H]5CCN(C(=O)[C@@H]6CCC(=O)N6)C[C@H]5F)c(C#N)c4)n3)cc2)CCN1C1COC1 [Example 535]
(III) CC1(C)CNC[C@@H](F)[C@H]1Oc1ccc(-c2ncnc(Nc3ccc(N4CCN(C5COC5)CC4)cc3)n2)cc1C#N [Example 440]
Task field, ranking: reported pIC50, descending order. Please express your ranking as an ordered list of the labels.
II, I, III
